The measured values listed here are drawn from patent US9233978B2.

# Tested on: CYP3A4
# testProtocol: Cytochrome P450 induction screening assay, mRNA induction in human cryopreserved hepatocytes
# Format: in vitro ADME
# conditionSet: CYP3A4 mRNA relative induction, 24 hours, test compound up to 10 μM
Categorize each record by its % of Positive control (10 μM Rifampicin) using bin 1 = under 0.2%, bin 2 = from 0.2% up to 6%, bin 3 = 6% and over

compound	className
COC(=O)C1=C(CN2CCN3C(=O)N(CC4(C(=O)O)CCC4)C[C@@H]3C2)NC(c2nccs2)=N[C@H]1c1ccc(F)cc1Cl	bin 2
CCOC(=O)C1=C(CN2CCN3C(=O)N(CC(C)(C)C(=O)O)C[C@@H]3C2)NC(c2nccs2)=N[C@H]1c1cccc(F)c1Cl	bin 2
CCOC(=O)C1=C(CN2CCN3C(=O)N(C4CCC(C(=O)O)C4)C[C@@H]3C2)NC(c2nccs2)=N[C@H]1c1cccc(F)c1Cl (mixture of isomers)	bin 1
COC(=O)C1=C(CN2CCN3C(=O)N(C4CCC(C(=O)O)CC4)C[C@@H]3C2)NC(c2nccs2)=N[C@H]1c1ccc(F)cc1Cl (stereo partly drawn)	bin 1
COC(=O)C1=C(CN2CCN3C(=O)NC[C@@H]3C2)NC(c2nccs2)=N[C@H]1c1ccc(F)cc1Cl	bin 3
COC(=O)C1=C(CN2CCN3C(=O)N(CC(C)(C)C(=O)O)C[C@@H]3C2)NC(c2nccs2)=N[C@H]1c1ccc(F)cc1Cl	bin 2
COC(=O)C1=C(CN2CCN3C(=O)N(C(C)(C)C)C[C@@H]3[C@H]2C(=O)O)NC(c2nccs2)=N[C@H]1c1ccc(F)c(F)c1C (single isomer, unassigned) [Example 88B]	bin 2
COC(=O)C1=C(CN2CCN3C(=O)N(C4CC4)C[C@@H]3[C@H]2C(=O)O)NC(c2nccs2)=N[C@H]1c1ccc(F)cc1Cl (racemic)	bin 3

----------
# testProtocol: Human microsomal metabolic stability
# Format: in vitro ADME
# conditionSet: human microsomes 0.5 mg/mL, 1 μM test compound, NADPH, 37° C., pH 7.4, 0-30 minutes
measuredProperty: Human Microsomal Clearance (mL/min/kg)

compound	unitDescriptor	result
CCOC(=O)C1=C(CN2CCN3C(=O)N(CCCOCC(=O)O)CC3C2)NC(c2nccs2)=N[C@H]1c1cccc(F)c1Cl (some centres unmarked)	mL/min/kg	4.5
COC(=O)C1=C(CN2CCN3C(=O)N(C(C)C)CC3(CC(=O)O)C2)NC(c2nccs2)=N[C@H]1c1ccc(F)cc1Cl (some centres unmarked)	mL/min/kg	0.3
CCOC(=O)C1=C(CN2CCN3C(=O)N(C4CCC(C(=O)O)C4)C[C@@H]3C2)NC(c2nccs2)=N[C@H]1c1cccc(F)c1Cl (mixture of isomers) [Example 62]	mL/min/kg	1.7
CCOC(=O)C1=C(CN2CCN3C(=O)N(CC(C)(C)C(=O)O)C[C@@H]3C2)NC(c2nccs2)=N[C@H]1c1cccc(F)c1C	mL/min/kg	0.8
COC(=O)C1=C(CN2CCN3C(=O)N(C(C)C)C[C@H]3[C@@H]2C(=O)O)NC(c2nccs2)=N[C@H]1c1ccc(F)c(F)c1C (single isomer, unassigned) [Example 85A]	mL/min/kg	4.9

----------
Measured solubility thermodynamic of individual entries
# testProtocol: Lysa solubility
# Type: physicochemical
# conditionSet: phosphate buffer, pH 6.5, aqueous buffer, thermodynamic from solid, 0.05 M phosphate buffer (pH 6.5)
measuredProperty: solubility thermodynamic

                                   compound       result
0  COC(=O)C1=C(CN2CCN3C(=O)N(CC(C)(C)C(=O)O)C[C@@H]3C2)NC(c2nccs2)=N[C@H]1c1ccc(F)cc1Cl  > 785 µg/mL
1  CCOC(=O)C1=C(CN2CCN3C(=O)N(CC4(C(=O)O)CCC4)C[C@@H]3C2)NC(c2nccs2)=N[C@H]1c1cccc(F)c1Cl    436 µg/mL
2  COC(=O)C1=C(CN2CCN3C(=O)N(C(C)(C)CC(=O)O)C[C@@H]3C2)NC(c2nccs2)=N[C@H]1c1ccc(F)c(F)c1C    422 µg/mL
3  COC(=O)C1=C(CN2CCN3C(=O)N(C4CC5(CC(C(=O)O)C5)C4)C[C@@H]3C2)NC(c2nccs2)=N[C@H]1c1ccc(F)cc1Cl (stereo partly drawn)    180 µg/mL
4  COC(=O)C1=C(CN2CCN3C(=O)N([C@H]4CCC[C@H]4C(=O)O)C[C@@H]3C2)NC(c2nccs2)=N[C@H]1c1ccc(F)cc1Cl    589 µg/mL
5  CCOC(=O)C1=C(CN2CCN3C(=O)N(CC(C)C(=O)O)C[C@@H]3C2)NC(c2nccs2)=N[C@H]1c1cccc(F)c1Cl (stereo partly drawn)  > 786 µg/mL

----------
# testProtocol: Human microsomal metabolic stability
# Type: in vitro ADME
# conditionSet: human microsomes 0.5 mg/mL, 1 μM test compound, NADPH, 37° C., pH 7.4, 0-30 minutes
Measured Human Microsomal Clearance of individual entries
measuredProperty: Human Microsomal Clearance (mL/min/kg)

>>> print(df.to_string())
                                   molecule            measuredproperty  result
0  CCOC(=O)C1=C(CN2CCN3C(=O)N(C4(CC(=O)O)CC4)CC3C2)NC(c2nccs2)=N[C@H]1c1cccc(F)c1Cl (stereo in doubt)  Human Microsomal Clearance     3.8
1  COC(=O)C1=C(CN2CCN3C(=O)N(CC4(C(=O)O)CCC4)C[C@@H]3C2)NC(c2nccs2)=N[C@H]1c1ccc(F)cc1Cl  Human Microsomal Clearance     2.3
2  CCOC(=O)C1=C(CN2CCN3C(=O)N(CC(C)(C)C(=O)O)C[C@@H]3C2)NC(c2nccs2)=N[C@H]1c1cccc(F)c1Cl  Human Microsomal Clearance     0.4
3  COC(=O)C1=C(CN2CCN3C(=O)N(CC(C)(C)C(=O)O)C[C@@H]3C2)NC(c2nccs2)=N[C@H]1c1ccccc1Cl  Human Microsomal Clearance     1.0
4  CCOC(=O)C1=C(CN2CCN3C(=O)N(CC(C)C(=O)O)C[C@@H]3C2)NC(c2nccs2)=N[C@H]1c1ccccc1Cl (stereo partly drawn)  Human Microsomal Clearance     0.1
5  COC(=O)C1=C(CN2CCN3C(=O)N(CC(C)(C)C(=O)O)C[C@@H]3C2)NC(c2nccs2)=N[C@H]1c1ccc(F)c(F)c1C  Human Microsomal Clearance     3.1

----------
# testProtocol: Human microsomal metabolic stability
# Assay type: in vitro ADME
# conditionSet: human microsomes 0.5 mg/mL, 1 μM test compound, NADPH, 37° C., pH 7.4, 0-30 minutes
Measured Human Microsomal Clearance of individual entries

molecule	Human Microsomal Clearance, mL/min/kg
CCOC(=O)C1=C(CN2CCN3C(=O)N(C4CC4)C[C@@H]3[C@H]2C(=O)O)NC(c2nccs2)=N[C@H]1c1cccc(F)c1Cl (single isomer, unassigned) [Example 82B]	2.7
COC(=O)C1=C(CN2CCN3C(=O)OC(C)(C)[C@]3(CC(=O)O)C2)NC(c2nccs2)=N[C@H]1c1ccc(F)cc1Cl (single isomer, unassigned) [Example 90A]	0.3
COC(=O)C1=C(CN2CCN3C(=O)N(CC(C)(C)C(=O)O)C[C@@H]3C2)NC(c2nccs2)=N[C@H]1c1ccc(F)cc1Cl	2.0

----------
# testProtocol: Human microsomal metabolic stability
# Type: in vitro ADME
# conditionSet: human microsomes 0.5 mg/mL, 1 μM test compound, NADPH, 37° C., pH 7.4, 0-30 minutes
Lab note: anything with Human Microsomal Clearance below 3 mL/min/kg is marked Fulfilled; values at 3 mL/min/kg or higher are marked Not fulfilled.

molecule	className
CCOC(=O)C1=C(CN2CCN3C(=O)N(CC4(C(=O)O)CC4)C[C@@H]3C2)NC(c2nccs2)=N[C@H]1c1cccc(F)c1Cl [Example 36]	Not fulfilled
CCOC(=O)C1=C(CN2CCN3C(=O)N(C(C)(C)CC(=O)O)C[C@@H]3C2)NC(c2nccs2)=N[C@H]1c1cccc(F)c1Cl [Example 34]	Fulfilled
COC(=O)C1=C(CN2CCN3C(=O)N(CCCCC(=O)O)C[C@@H]3C2)NC(c2nccs2)=N[C@H]1c1ccc(F)cc1Cl [Example 80]	Not fulfilled
COC(=O)C1=C(CN2CCN3C(=O)N(C4CCC(C(=O)O)C4)C[C@@H]3C2)NC(c2nccs2)=N[C@H]1c1ccc(F)cc1Cl (mixture of isomers) [Example 63]	Not fulfilled
COC(=O)C1=C(CN2CCN3C(=O)N(c4cccc(C(=O)O)c4)C[C@@H]3C2)NC(c2nccs2)=N[C@H]1c1ccc(F)cc1Cl [Example 29]	Fulfilled
COC(=O)C1=C(CN2CCN3C(=O)N(C4CC4)C[C@@H]3[C@H]2C(=O)O)NC(c2nccs2)=N[C@H]1c1ccc(F)c(F)c1C (single isomer, unassigned) [Example 83B]	Fulfilled
CCOC(=O)C1=C(CN2CCN3C(=O)N(C(C)(C)C(=O)O)C[C@@H]3C2)NC(c2nccs2)=N[C@H]1c1cccc(F)c1Cl [Example 32]	Fulfilled
COC(=O)C1=C(CN2CCN3C(=O)N(C4CC5(CC(C(=O)O)C5)C4)C[C@@H]3C2)NC(c2nccs2)=N[C@H]1c1ccc(F)cc1Cl (stereo partly drawn) [Example 79]	Not fulfilled
COC(=O)C1=C(CN2CCN3C(=O)N([C@H]4C[C@H](C(=O)O)C4)C[C@@H]3C2)NC(c2nccs2)=N[C@H]1c1ccc(F)cc1Cl [Example 39]	Fulfilled
COC(=O)C1=C(CN2CCN3C(=O)N(Cc4ccc(C(=O)O)cc4)CC3C2)NC(c2nccs2)=N[C@H]1c1ccc(F)cc1Cl (stereo partly drawn) [Example 65]	Not fulfilled
COC(=O)C1=C(CN2CCN3C(=O)N(C4CCC(C(=O)O)C4)C[C@@H]3C2)NC(c2nccs2)=N[C@H]1c1ccc(F)cc1Cl (mixture of isomers) [Example 61]	Fulfilled
CCOC(=O)C1=C(CN2CCN3C(=O)N(C4CCC(C(=O)O)C4)C[C@@H]3C2)NC(c2nccs2)=N[C@H]1c1cccc(F)c1Cl (mixture of isomers) [Example 64]	Not fulfilled
